# credit: patent US9084799B2

# assay details: in vivo
# condition: A/J, mouse, mean theophylline plasma level, Oral 1 mg/kg theophylline in combination with 0.3 mg/kg Dexamethasone, 1 hour post dosing, TS exposed mice
readout: concentration at 1 h

>>> print(df.to_string())
                       smiles               readout       result
0  Cn1c(=O)c2[nH]cnc2n(C)c1=O  concentration at 1 h  0.479 µg/mL

---

# assay details: in vivo
# condition: A/J, mouse, mean theophylline plasma level, Intra-nasal 0.25 mg/kg theophylline in combination with 0.1 mg/kg Dexamethasone, 1 hour post dosing, TS exposed mice
readout: concentration at 1 h

>>> print(df.to_string())
                       smiles    result
0  Cn1c(=O)c2[nH]cnc2n(C)c1=O  45 ng/mL

---

# assay details: in vivo
# condition: A/J, mouse, mean theophylline plasma level, Intra-nasal 0.5 mg/kg theophylline in combination with 0.1 mg/kg Dexamethasone, 1 hour post dosing, TS exposed mice
readout: concentration at 1 h (ng/mL)

>>> print(df.to_string())
                       smiles               readout  measurement_unit  numeric_readout
0  Cn1c(=O)c2[nH]cnc2n(C)c1=O  concentration at 1 h             ng/mL               74

---

# assay details: in vivo
# condition: A/J, mouse, mean theophylline plasma level, Oral 3 mg/kg theophylline in combination with 0.3 mg/kg Dexamethasone, 1 hour post dosing, TS exposed mice
readout: concentration at 1 h (ng/mL)

>>> df
                       smiles  numeric_readout
0  Cn1c(=O)c2[nH]cnc2n(C)c1=O             1370
